tested on: PfMDR1 cKD parasite line; assay: MDR1 compound susceptibility assay (Renilla luciferase); format: cell-based, P. falciparum; settings: with (0.5 μM) vs without aTc, 72 h, luminescence
Square brackets hold non-standard residues; d marks the D form. Peptide text beside a SMILES is read from it. Leu(ol) = CC(C)C[C@H](N)CO; dIva = CC[C@@](C)(N)C(=O)O; Aib = CC(C)(N)C(=O)O
Recorded shift in sensitivity upon PfMDR1 knockdown by entry
measured_attribute: shift in sensitivity upon PfMDR1 knockdown

| molecule | target_entity | result |
| --- | --- | --- |
| OC(c1cc(C(F)(F)F)nc2c(C(F)(F)F)cccc12)C1CCCCN1 (stereo not shown) [mefloquine, reference compound] | PfMDR1 cKD parasite line | ~12 fold |
| CC[C@H](C)[C@H](NC(=O)[C@H](CC(C)C)NC(=O)[C@H](CCC(N)=O)NC(=O)[C@@](C)(CC)NC(C)=O)C(=O)NC(C)(C)C(=O)N1CCC[C@H]1C(=O)N[C@](C)(CC)C(=O)N[C@@H](CC(C)C)C(=O)NC(C)(C)C(=O)N1CCC[C@H]1C(=O)N[C@H](CO)CC(C)C [HZ NPDG-I, harzianin NPDG I] (Ac-[dIva]QLI[Aib]P[dIva]L[Aib]P[Leu(ol)]) | PfMDR1 cKD parasite line | 43 fold |
| CC[C@H](C)[C@H](NC(=O)[C@H](C)NC(=O)[C@@H]1CCCN1C(=O)C(C)(C)NC(=O)[C@H](CC(C)C)NC(=O)[C@H](CCC(N)=O)NC(=O)[C@@](C)(CC)NC(C)=O)C(=O)NC(C)(C)C(=O)N1CCC[C@H]1C(=O)N[C@](C)(CC)C(=O)N[C@@H](CC(C)C)C(=O)NC(C)(C)C(=O)N1CCC[C@H]1C(=O)N[C@H](CO)CC(C)C [HZ NPDG-H, harzianin NPDG H] (Ac-[dIva]QL[Aib]PAI[Aib]P[dIva]L[Aib]P[Leu(ol)]) | PfMDR1 cKD parasite line | ~6 fold |
